Assay: Metabolic stability in Sprague-Dawley rat liver microsomes assessed as rate constant at 100 uM by HPLC-UV analysis
Format: ADME, Microsome
Recorded k el at 100 µM for the following compounds

| compound | k el at 100 µM (s⁻¹) |
| --- | --- |
| COc1ccc(CCN(C)CCCC(C#N)(c2ccc(OC)c(OC)c2)C(C)C)cc1OC (centres undefined) | 0.000392 |
| COc1cc2c(cc1OC)CN(CCc1ccc(NC(=O)c3cc(OC)c(OC)cc3NC(=O)c3cnc4ccccc4c3)cc1)CC2 | 5.5e-05 |
| C[C@]12CC[C@H]3[C@@H](CCC4=CC(=O)CC[C@@]43C)[C@@H]1CC[C@@H]2O | 0.00444 |
| CC(=O)O[C@@H]1C[C@@H](OC(=O)c2ccccc2)/C(C)=C/[C@H]2[C@@H](OC(=O)c3ccccc3)[C@@H](C)[C@H](O)[C@]2(OC(C)=O)[C@H](O)[C@](C)(O)CCC1(C)C | 1.33e-05 |
